Ref: ChEMBL document CHEMBL2016528

experiment: Cytotoxicity against human K562/A02 cells assessed as survival rate at 10 uM after 72 hrs by MTS assay
Type: cell-based
recorded.conditions: read-out: Activity
recorded.metric: viability at 72 h, 10 µM (%)
Report the figure in % without appending any unit label.

**Q:** Which viability at 72 h, 10 µM value is on record for COC(=O)c1cc(OC)c2c(c1-c1c(/C=C/C(=O)c3cc(C)ccc3C)cc(OC)c3c1OCO3)OCO2 ?
**A:** 95

----------
Test system: P-glycoprotein (P-gp)
experiment: Ratio of IC50 for human K562/A02 cells overexpress P-gp to IC50 for human K562 cells
Assay type: cell-based
recorded.conditions: K562/A02 cells overexpressing P-gp and parental K562 cells, read-out: Ratio IC50
recorded.metric: selectivity ratio
Answer field: number only, no words.

**Q:** Which selectivity ratio value is on record for COc1cccc2c1C(=O)c1c(O)c3c(c(O)c1C2=O)C[C@@](O)(C(=O)CO)C[C@@H]3O[C@H]1C[C@H](N)[C@H](O)[C@H](C)O1 ?
**A:** 108
